Consider the following molecules and their measured IC50 readings.
molecular target: Src kinase (Homo sapiens); construct: purchased Upstate Bioteolnology (sic; Upstate Biotechnology); later HMR stock 27597-019E1 #14-117; experiment: Phosphorylation assay of Src kinase inhibitors (radiometric, 96 well filter plate); format: biochemical; settings: duplicates, tested in the range of 400-0.098 µM; 10 µM peptide substrate (FIYGAFKKKKNH2), 5 µM unlabeled ATP, room temperature 30 min; read-out: IC50
Sequence (P12931 whole entry): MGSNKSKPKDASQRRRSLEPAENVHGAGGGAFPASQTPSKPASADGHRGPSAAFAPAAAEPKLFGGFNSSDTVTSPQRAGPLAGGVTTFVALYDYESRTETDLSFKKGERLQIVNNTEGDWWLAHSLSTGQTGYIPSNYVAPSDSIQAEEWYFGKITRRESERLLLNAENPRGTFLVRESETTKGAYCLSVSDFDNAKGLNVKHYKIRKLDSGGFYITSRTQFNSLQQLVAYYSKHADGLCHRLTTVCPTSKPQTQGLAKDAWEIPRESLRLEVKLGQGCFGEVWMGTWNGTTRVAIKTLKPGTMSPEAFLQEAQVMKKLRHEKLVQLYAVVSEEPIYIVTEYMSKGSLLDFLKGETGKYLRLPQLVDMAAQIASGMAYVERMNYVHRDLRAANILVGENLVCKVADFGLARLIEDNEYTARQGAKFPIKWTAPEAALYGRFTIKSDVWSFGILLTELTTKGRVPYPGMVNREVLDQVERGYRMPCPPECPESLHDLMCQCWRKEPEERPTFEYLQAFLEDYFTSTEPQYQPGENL

{"molecule": "N=C(N)N[C@@H](Cc1ccc(O)cc1)C(=O)NCCCCOc1cc2ccccc2cc1C(=O)NCC(N)=O", "units": "µM", "IC50": 6}
{"molecule": "NC(=O)CNC(=O)c1cc2ccccc2cc1OCCCCNC(=O)[C@H](Cc1ccc(O)cc1)NC=O", "units": "µM", "IC50": 6}
{"molecule": "NC(=O)CNC(=O)c1cc2ccccc2cc1OCCCCNC(=O)C1NCCC1c1ccc(O)cc1 (stereo not drawn) [Example 22]", "units": "µM", "IC50": 11}
{"molecule": "NC(=O)CNC(=O)c1cc2ccccc2cc1NC(=O)CCCNC(=O)[C@@H](N)Cc1ccc(O)cc1 [Example 34]", "units": "µM", "IC50": 252}
{"molecule": "NC(=O)CNC(=O)c1cc2ccccc2cc1OCCCCNC(=O)[C@@H](N)CC1=CS(=O)(=O)c2ccccc21", "units": "µM", "IC50": 5}
{"molecule": "NCCCCC(NC(=O)c1cc2ccccc2cc1OCCCCNC(=O)[C@@H](N)Cc1ccc(O)cc1)C(N)=O (stereo partly drawn)", "units": "µM", "IC50": 348}
